target: B-RAF (Homo sapiens, UniProt P15056, V600E); experiment: DELFIA Kinase Assay; details: 100 μM ATP, GST-MEK substrate
Sequence (P15056 whole entry V600E): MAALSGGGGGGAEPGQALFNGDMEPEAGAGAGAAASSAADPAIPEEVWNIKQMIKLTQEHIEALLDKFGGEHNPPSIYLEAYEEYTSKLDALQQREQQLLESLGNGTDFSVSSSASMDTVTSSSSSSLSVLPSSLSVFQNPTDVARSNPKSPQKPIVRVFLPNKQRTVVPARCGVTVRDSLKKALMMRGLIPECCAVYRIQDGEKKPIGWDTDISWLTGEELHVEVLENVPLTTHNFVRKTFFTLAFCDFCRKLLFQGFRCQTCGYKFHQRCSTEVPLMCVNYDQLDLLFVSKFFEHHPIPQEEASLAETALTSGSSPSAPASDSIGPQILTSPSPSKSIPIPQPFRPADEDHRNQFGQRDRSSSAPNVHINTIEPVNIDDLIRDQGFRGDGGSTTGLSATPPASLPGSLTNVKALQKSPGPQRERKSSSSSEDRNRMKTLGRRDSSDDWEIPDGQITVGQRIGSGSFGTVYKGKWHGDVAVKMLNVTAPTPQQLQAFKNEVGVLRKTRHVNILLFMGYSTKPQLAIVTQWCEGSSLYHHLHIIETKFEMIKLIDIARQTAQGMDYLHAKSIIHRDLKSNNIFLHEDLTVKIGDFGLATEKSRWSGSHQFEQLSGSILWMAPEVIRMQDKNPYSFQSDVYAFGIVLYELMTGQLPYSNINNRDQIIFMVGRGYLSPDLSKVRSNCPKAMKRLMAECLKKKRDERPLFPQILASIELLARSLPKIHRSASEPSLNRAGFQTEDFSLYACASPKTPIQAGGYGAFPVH
recorded_metric: IC50

[in] Form: Entry = O=C(Nc1cccc(Oc2ccnc3[nH]c(=O)cnc23)c1)c1cccc(OC(F)(F)F)c1 | System = B-RAF (Homo sapiens, UniProt P15056, V600E) | IC50 = ____
[out] < 100 nM

[in] Same read-out for Cc1ccc(-n2nc(C(C)(C)C)cc2NC(=O)Nc2ccc(Oc3ccnc4[nH]c(=O)cnc34)cc2F)cc1 ?
[out] < 100 nM

[in] Now consider CC(C)(C)c1cc(NC(=O)Nc2ccc(Oc3ccnc4nc(N)c(=O)[nH]c34)c3ccccc23)n(-c2ccccc2)n1 and answer again.
[out] 100 to 1000 nM

[in] Repeat for the following compound: C#CCn1nc(C(C)(C)C)cc1NC(=O)Nc1ccc(Oc2ccnc3[nH]c(=O)cnc23)cc1F
[out] < 100 nM
